Data credit: ChEMBL document CHEMBL4699494

Reported values of pIC50 for individual entries
# Tested on: NCI-H23
# MEASUREMENT_NOTES: Cytotoxicity against human NCI-H23 cells by colorimetric method
# Assay type: functional, cell-based
pIC50: −log10 of the molar value.

SMILES_REPR	TGT	pIC50
O=C(NO)c1ccc(CN2C(=O)/C(=C3\Nc4ccccc4\C3=N/O)c3cc(F)ccc32)cc1	NCI-H23	7.52
COc1ccc2c(c1)/C(=C1/Nc3ccccc3/C1=N\O)C(=O)N2CCCCCCC(=O)NO	NCI-H23	7.15
O=C1Nc2ccccc2/C1=C1/Nc2ccccc2/C1=N\O	NCI-H23	4.95
Cc1ccc2c(c1)/C(=C1/Nc3ccccc3/C1=N\O)C(=O)N2Cc1ccc(/C=C/C(=O)NO)cc1	NCI-H23	8.00
O=C(/C=C/c1ccc(CN2C(=O)/C(=C3\Nc4ccccc4\C3=N/O)c3cc(Cl)ccc32)cc1)NO	NCI-H23	8.15
O=C(NO)c1ccc(CN2C(=O)/C(=C3\Nc4ccccc4\C3=N/O)c3cc(Br)ccc32)cc1	NCI-H23	8.15
